test system: NCI-H460; experiment: NCI tumour cell line growth inhibition, 48 h
Hit rate of the full screen: of about 56,000 sequences, about 4,700 (8.4%) were called active. Many of the other results were omitted from the sample, so actives are more common in it than they were. Entries with a potency or affinity are not part of this list.
Please assign criterion not met whenever GI50 is at or above 0.4 µM, and criterion met whenever it is below.

Study these solved cases before continuing.
| SUBSTANCE | CATEGORY |
| --- | --- |
| [Bis(aminomethyl)tetramethylenesilane]dichloropaltinum(II), CHEMBL2146205 | criterion not met |
| [Bis(aminomethyl)diethylsilane]tetrachloroplatinum(IV), CHEMBL2146203 | criterion not met |

Strictly below 0.4 µM: is that where GI50 of [Bis(aminomethyl)pentamethylenesilane]dichloropaltinum(II), CHEMBL2146202 sits?
criterion met

Is 0.4 µM strictly greater than the substance's reported GI50? substance: [Bis(aminomethyl)tetramethylenesilane]tetrachloropaltinum(IV), CHEMBL2146189
criterion met

# strict comparison: is reported GI50 < 0.4 µM? input = mu-(1,7-nanodiamine-N,N')bis-(cis-aminedichloroplatimum (II)), CHEMBL2146215
criterion not met

Check if GI50 falls below 0.4 µM for CISPLATIN, CHEMBL11359 .
criterion not met
